I'd appreciate it if you could supply photoluminescence quantum yield values for the items below.
- Experiment notes: photoluminescence quantum yield (fraction); solvent given as SMILES
- Details: in CC#N
Lab note: jot the number down without any unit.

Request: # input compound: c1cc2ccc3cc4cccc5ccc6cc(c1)c2c3c6c54 ; wanted: its photoluminescence quantum yield
Response: 0.32

Request: # input compound: COc1cc(/C=C/c2nc3ccccc3o2)c(OC)cc1/C=C/c1nc(C)nc(C)n1 ; wanted: its photoluminescence quantum yield
Response: 0.85

Request: # input compound: Cc1ccc2nc3c(=O)[nH]c(=O)[nH]c3nc2c1 ; wanted: its photoluminescence quantum yield
Response: 0.017

Request: # input compound: COc1ccc(-c2nc(-c3ccc(-c4nc(-c5ccc(OC)cc5)c(-c5ccc(OC)cc5)[nH]4)s3)[nH]c2-c2ccc(OC)cc2)cc1 ; wanted: its photoluminescence quantum yield
Response: 0.62

Request: # input compound: CC1=CC(C)=[N+]2C1=C(c1c3ccccc3c(C)c3ccccc13)c1c(C)cc(C)n1[B-]2(F)F ; wanted: its photoluminescence quantum yield
Response: 0.002
